# System: U-2932
# test.description: growth inhibition by drug plus 177Lu-lilotomab satetraxetan (1 - RLU/untreated control) (fraction); higher = stronger inhibition
# condition.description: 1000 nM; time (day): 4; 177Lu-lilotomab satetraxetan 1 ug/ml
Structures can show the parent of a compound that is named as a salt.
Listed next: entries and their corresponding growth inhibition by drug plus 177Lu-lilotomab satetraxetan.
Could you respond with only the numeric value?

# annotated cases, reported growth inhibition by drug plus 177Lu-lilotomab satetraxetan shown
molecule: Nc1nccc(-c2ccc3noc(-c4ccc(Cl)cc4)c3c2)n1 [PIM-1 Inhibitor 2]
result.number: 0.208

molecule: CCOc1cc(C(=O)Nc2ccc(Cl)c(-c3nc4ccccc4[nH]3)c2)cc(OCC)c1OCC
result.number: 0.267

molecule: CC/C(=C(\c1ccccc1)c1ccc(OCCN(C)C)cc1)c1ccccc1 [Tamoxifen Citrate (Nolvadex)]
result.number: 0.103

molecule: CCN(CC)CCOc1ccc(Nc2ncc3cc(-c4c(Cl)cccc4Cl)c(=O)n(C)c3n2)cc1
result.number: 0.972

molecule: Cc1nnc(C(C)C)n1C1C[C@H]2CC[C@@H](C1)N2CC[C@H](NC(=O)C1CCC(F)(F)CC1)c1ccccc1 (stereo in doubt) [Maraviroc]
result.number: 0.112

Lab book: growth inhibition by drug plus 177Lu-lilotomab satetraxetan of CO[C@H]1C[C@@H]2CC[C@@H](C)[C@@](O)(O2)C(=O)C(=O)N2CCCC[C@H]2C(=O)O[C@H]([C@H](C)C[C@@H]2CC[C@@H](OCCO)[C@H](OC)C2)CC(=O)[C@H](C)/C=C(\C)[C@@H](O)[C@@H](OC)C(=O)[C@H](C)C[C@H](C)/C=C/C=C/C=C/1C [Everolimus (RAD001)] noted as 0.729

The molecule CC(NC(=O)c1ccccc1/N=C/c1c(O)ccc2ccccc12)c1ccccc1 (stereo not drawn) [Sirtinol] showed growth inhibition by drug plus 177Lu-lilotomab satetraxetan equal to 0.0904

Looking up CN(CCOc1ccc(CC2SC(=O)NC2=O)cc1)c1ccccn1 (stereo not drawn) [Rosiglitazone (Avandia)] , I found its growth inhibition by drug plus 177Lu-lilotomab satetraxetan recorded as 0.0366

For `Cn1c(=O)c(F)c(Nc2ccc(I)cc2F)c2c(=O)n(C[C@@H](O)CO)cnc21` the molecule record lists growth inhibition by drug plus 177Lu-lilotomab satetraxetan as 0.254

Record `Oc1nc(-c2ccc(C(F)(F)F)cc2)nc2c1CSCC2` , field growth inhibition by drug plus 177Lu-lilotomab satetraxetan: 0.0641

Consider COc1cc(Nc2ncc(F)c(Nc3ccc4c(n3)NC(=O)C(C)(C)O4)n2)cc(OC)c1OC [R406(free base)] . Its measured growth inhibition by drug plus 177Lu-lilotomab satetraxetan is 0.0868

Measured growth inhibition by drug plus 177Lu-lilotomab satetraxetan, `Oc1cccc(-c2nc(N3CCOCC3)c3oc4ncccc4c3n2)c1` : 0.625

Input `N#Cc1c(O)c2c(-c3ccc(-c4ccccc4O)cc3)csc2[nH]c1=O` . Output growth inhibition by drug plus 177Lu-lilotomab satetraxetan: 0.0835

The value of growth inhibition by drug plus 177Lu-lilotomab satetraxetan measured for the molecule CCC(C)(C)C(=O)O[C@H]1C[C@@H](C)C=C2C=C[C@H](C)[C@H](CC[C@@H]3C[C@@H](O)CC(=O)O3)[C@H]21 [Simvastatin (Zocor)] turned out to be -0.0186

Noted for CN(N=O)C(=O)N[C@@H](C=O)[C@@H](O)[C@H](O)[C@H](O)CO [Streptozotocin (Zanosar)] : its growth inhibition by drug plus 177Lu-lilotomab satetraxetan reads -0.0176

The molecule COc1cc2nccc(Oc3ccc(NC(=O)C4(C(=O)Nc5ccc(F)cc5)CC4)cc3)c2cc1OC [XL-184 free base (Cabozantinib)] showed growth inhibition by drug plus 177Lu-lilotomab satetraxetan equal to 0.177
